# TEST_TARGET: mTOR (Homo sapiens)
# TEST_METHOD_NOTES: Lanthascreen kinase binding assay, assay G
# TEST_PARAMETERS: read-out: Assay G mTOR IC50
pIC50: −log10 of the molar value.
REPORTED_ENDPOINT: pIC50

Use these answered entries as a reference point.
Cc1ccc(S(=O)(=O)NC(C)C(C)C)cc1-c1cnc(N)c(-n2cncn2)n1 (stereo not shown)	5.43
Cc1ccc(S(=O)(=O)N[C@H]2CC[C@@H](O)CC2)cc1-c1cnc(N)c(-c2cnn(C)c2)n1	5.35
COc1ccc(-c2nc(-c3cc(S(=O)(=O)NCCC(C)(C)O)ccc3C)cnc2N)c(C)n1	5.07
Cc1cc(-c2nc(-c3cc(S(=O)(=O)N[C@H]4CC[C@@H](O)CC4)ccc3C)cnc2N)ccn1	5.38
CC[C@H](CO)NS(=O)(=O)c1ccc(C)c(-c2cnc(N)c(-c3ccnc(C)c3)n2)c1	5.11

(I) Cc1cc(-c2nc(-c3cc(S(=O)(=O)N[C@H]4CC[C@H](O)CC4)ccc3C)cnc2N)on1
(II) Cc1ncc(-c2nc(-c3cc(S(=O)(=O)N[C@H]4CC[C@@H](O)CC4)ccc3C)cnc2N)s1
Req: Between I and II , whose recorded pIC50 is greater? Refer to your chosen item by its label in the answer.
Resp: II

(I) Cc1cn(-c2nc(-c3cc(S(=O)(=O)NCCC(C)(C)O)ccc3C)cnc2N)cn1
(II) Cc1ccc(S(=O)(=O)NOCC(C)(C)O)cc1-c1cnc(N)c(-n2cncn2)n1
(III) Cc1ccc(S(=O)(=O)NCC(C)(C)O)cc1-c1cnc(N)c(-c2nn(C)nc2C)n1
Req: Give the ascending ranking of the items by reported pIC50. Put the labels in the requested order and list them out.
Resp: I, II, III
(I: 5.19, II: 5.42, III: 6.38)

###

# TEST_TARGET: UniProt P42345
# TEST_METHOD_NOTES: Lanthascreen kinase binding assay, assay G
# TEST_PARAMETERS: read-out: Assay G mTOR IC50
REPORTED_ENDPOINT: IC50 (µM)

For orientation, consider the following solved cases.
Cc1ccc(S(=O)(=O)NCCC(C)(C)O)cc1-c1cnc(N)c(-c2cnn(Cc3ccncc3)c2)n1	6.9
Cc1ccc(S(=O)(=O)NCC(C)(C)N2CCOCC2)cc1-c1cnc(N)c(-n2cncn2)n1	6.7
Cc1ncc(-c2nc(-c3cc(S(=O)(=O)N[C@H]4CC[C@H](O)CC4)ccc3C)cnc2N)s1	0.88

(I) Cc1ccc(S(=O)(=O)N2CCCC(F)(F)C2)cc1-c1cnc(N)c(-n2cncn2)n1
(II) Cc1ccc(S(=O)(=O)NC2CCSC2=O)cc1-c1cnc(N)c(-n2cncn2)n1 (centres unmarked)
Req: Two entries are listed, I and II . Which one carries the higher IC50? State the label of the item chosen.
Resp: II
(II: 5.9 µM, I: 1.1 µM)

###

# TEST_TARGET: PI 3-kinase gamma (Homo sapiens)
# Sequence (P48736 whole entry): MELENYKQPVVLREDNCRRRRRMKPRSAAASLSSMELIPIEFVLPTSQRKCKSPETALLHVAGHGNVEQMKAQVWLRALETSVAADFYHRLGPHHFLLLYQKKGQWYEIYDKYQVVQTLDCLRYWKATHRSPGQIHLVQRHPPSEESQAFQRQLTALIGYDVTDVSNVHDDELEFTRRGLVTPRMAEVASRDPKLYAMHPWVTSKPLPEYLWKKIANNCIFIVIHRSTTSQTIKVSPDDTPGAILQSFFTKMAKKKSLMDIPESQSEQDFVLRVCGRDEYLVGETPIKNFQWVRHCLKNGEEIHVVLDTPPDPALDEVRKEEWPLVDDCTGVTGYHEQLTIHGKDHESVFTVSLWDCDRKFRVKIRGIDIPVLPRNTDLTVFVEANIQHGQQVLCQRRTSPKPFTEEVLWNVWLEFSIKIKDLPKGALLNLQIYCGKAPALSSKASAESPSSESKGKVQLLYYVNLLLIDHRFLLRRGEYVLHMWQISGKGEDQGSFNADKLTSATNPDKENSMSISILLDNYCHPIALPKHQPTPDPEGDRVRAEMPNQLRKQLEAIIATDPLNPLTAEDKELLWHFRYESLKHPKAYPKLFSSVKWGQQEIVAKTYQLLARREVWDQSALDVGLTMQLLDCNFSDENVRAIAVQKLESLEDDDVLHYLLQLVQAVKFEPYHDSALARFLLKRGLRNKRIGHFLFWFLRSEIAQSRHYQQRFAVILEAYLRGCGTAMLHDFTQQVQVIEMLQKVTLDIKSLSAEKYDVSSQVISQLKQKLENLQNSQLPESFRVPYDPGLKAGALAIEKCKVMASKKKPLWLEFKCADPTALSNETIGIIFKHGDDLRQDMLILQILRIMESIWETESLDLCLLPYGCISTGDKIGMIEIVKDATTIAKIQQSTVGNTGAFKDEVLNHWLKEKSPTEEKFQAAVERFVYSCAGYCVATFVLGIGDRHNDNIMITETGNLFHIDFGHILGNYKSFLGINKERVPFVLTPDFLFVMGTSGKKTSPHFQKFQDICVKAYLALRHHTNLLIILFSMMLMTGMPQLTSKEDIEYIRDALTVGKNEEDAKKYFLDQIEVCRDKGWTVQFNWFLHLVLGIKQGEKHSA
# TEST_METHOD_NOTES: TR-FRET Adapta assay, assay E
# Type: biochemical
# TEST_PARAMETERS: read-out: Assay E PI3Kγ IC50
Counter-ions that a name gives are not always drawn.
REPORTED_ENDPOINT: IC50 (µM)

Guide cases for IC50, answers given:
Cc1ccc(S(=O)(=O)N[C@H]2CC[C@H](O)CC2)cc1-c1cnc(N)c(-c2cncnc2)n1	0.105
Cc1ccc(S(=O)(=O)NCCC(C)(C)O)cc1-c1cnc(N)c(-c2cnn(Cc3ccccc3)c2)n1 [Example 132, hydrochloride]	0.017
Cc1cc(-c2nc(-c3cc(S(=O)(=O)NCC4CCCO4)ccc3C)cnc2N)ccn1 (centres unmarked)	0.056
CNCCNS(=O)(=O)c1ccc(C)c(-c2cnc(N)c(-c3ccnc(C)c3)n2)c1	0.26
Cc1ccc(S(=O)(=O)NCC2(O)CCC2)cc1-c1cnc(N)c(-n2cncn2)n1	0.045

(a) Cc1ccc(S(=O)(=O)NCCC2(O)CCCCC2)cc1-c1cnc(N)c(-n2cncn2)n1
(b) Cc1cc(F)c(S(=O)(=O)NCC(C)(C)O)cc1-c1cnc(N)c(-n2cncn2)n1
Req: Hey, between a and b which has a smaller measured IC50? Provide the label of your selected option as the answer.
Resp: a
(a: 0.034 µM, b: 0.085 µM)
